These entries and their values trace back to patent US10556905B2.

Can you tell me IC50 for the items I'm about to list?
target: AmpC (Pseudomonas aeruginosa, UniProt P24735); construct: AmpC, TEM-1, KPC-2 or OXA-2 domain excluding signal peptide was amplified with PCR; made in house; host or cells: Escherichia coli BL21 (DE3), pET-28b(+); assay: biochemical
Sequence (P24735 27-397): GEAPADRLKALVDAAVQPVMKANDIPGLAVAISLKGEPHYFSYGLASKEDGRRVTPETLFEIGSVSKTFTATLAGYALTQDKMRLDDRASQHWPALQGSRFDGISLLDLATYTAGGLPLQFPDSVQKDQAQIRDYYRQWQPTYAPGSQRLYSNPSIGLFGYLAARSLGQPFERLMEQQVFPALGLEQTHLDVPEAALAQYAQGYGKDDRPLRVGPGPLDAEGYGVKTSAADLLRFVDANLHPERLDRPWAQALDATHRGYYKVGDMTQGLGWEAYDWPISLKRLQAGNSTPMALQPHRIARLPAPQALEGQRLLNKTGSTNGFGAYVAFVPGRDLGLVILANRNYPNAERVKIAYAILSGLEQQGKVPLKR

Name the reported IC50 value associated with the compound CCONC(=O)[C@@H]1CC[C@@H]2CN1C(=O)N2OS(=O)(=O)O (racemic) [Example 57]
100 to 1000 nM

Okay, and CC(C)(C)OC(=O)NNC(=O)[C@@H]1CC[C@@H]2CN1C(=O)N2OS(=O)(=O)O (racemic) [Example 53] ?
100 to 1000 nM

Okay, and O=C(NOCCN1CCOCC1)[C@@H]1CC[C@@H]2CN1C(=O)N2OS(=O)(=O)O [Example 72] ?
< 100 nM

Okay, and O=C(NOC[C@@H]1CCN1)[C@@H]1CC[C@@H]2CN1C(=O)N2OS(=O)(=O)O [Example 75] ?
100 to 1000 nM

Okay, and O=C(NOCCn1ccnc1S(=O)(=O)O)[C@@H]1CC[C@@H]2CN1C(=O)N2OS(=O)(=O)O [Example 88] ?
100 to 1000 nM

Okay, and O=C(NOCCO)[C@@H]1CC[C@@H]2CN1C(=O)N2OS(=O)(=O)O [Example 95] ?
< 100 nM

Okay, and O=C1CC[C@@H](C(=O)NNC(=O)[C@@H]2CC[C@@H]3CN2C(=O)N3OS(=O)(=O)O)N1 [Example 41] ?
100 to 1000 nM

Okay, and NCCCONC(=O)[C@@H]1CC[C@@H]2CN1C(=O)N2OS(=O)(=O)O [Example 69] ?
100 to 1000 nM

Okay, and O=C(NOC1CCNCC1)[C@@H]1CC[C@@H]2CN1C(=O)N2OS(=O)(=O)O [Example 84] ?
< 100 nM

Okay, and CC(=O)NNC(=O)[C@@H]1CC[C@@H]2CN1C(=O)N2OS(=O)(=O)O [Example 21] ?
100 to 1000 nM

Okay, and CC(C)(C)C(=O)NNC(=O)[C@@H]1CC[C@@H]2CN1C(=O)N2OS(=O)(=O)O [Example 24] ?
100 to 1000 nM

Okay, and O=C(NOCC1CCNCC1)[C@@H]1CC[C@@H]2CN1C(=O)N2OS(=O)(=O)O [Example 85] ?
< 100 nM

Okay, and CCC(=O)NNC(=O)[C@@H]1CC[C@@H]2CN1C(=O)N2OS(=O)(=O)O [Example 22] ?
100 to 1000 nM

Okay, and C[C@H](N)CONC(=O)[C@@H]1CC[C@@H]2CN1C(=O)N2OS(=O)(=O)O [Example 66] ?
100 to 1000 nM

Okay, and COCC(=O)NNC(=O)[C@@H]1CC[C@@H]2CN1C(=O)N2OS(=O)(=O)O [Example 29] ?
100 to 1000 nM

Okay, and Nc1ccc(C(=O)NNC(=O)[C@@H]2CC[C@@H]3CN2C(=O)N3OS(=O)(=O)O)cc1 [Example 31] ?
100 to 1000 nM

Okay, and O=C(NOCCN1CCCNCC1)[C@@H]1CC[C@@H]2CN1C(=O)N2OS(=O)(=O)O [Example 74] ?
< 100 nM
